meta.source: patent US8895558B2

target or system: human recombinant serotonin 5-HT2A receptor (Homo sapiens, UniProt P28223)
Sequence (P28223 whole entry): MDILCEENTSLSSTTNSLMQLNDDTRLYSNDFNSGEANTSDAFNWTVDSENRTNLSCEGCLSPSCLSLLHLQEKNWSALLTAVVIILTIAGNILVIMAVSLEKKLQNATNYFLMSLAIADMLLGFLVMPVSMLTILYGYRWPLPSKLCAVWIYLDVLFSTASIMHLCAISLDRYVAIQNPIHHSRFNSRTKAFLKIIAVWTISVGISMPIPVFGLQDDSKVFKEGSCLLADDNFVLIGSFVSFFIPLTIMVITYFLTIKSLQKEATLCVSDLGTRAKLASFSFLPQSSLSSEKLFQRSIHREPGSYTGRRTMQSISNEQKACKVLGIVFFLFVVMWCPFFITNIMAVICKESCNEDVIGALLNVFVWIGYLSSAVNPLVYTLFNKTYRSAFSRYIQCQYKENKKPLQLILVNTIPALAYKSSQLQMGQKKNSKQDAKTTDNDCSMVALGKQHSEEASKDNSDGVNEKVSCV
protocol notes: Binding affinity for serotonin 5-HT2A receptor ([3H]Ketanserin)
test parameters: CHO-K1 expressed receptor, 1 nM [3H]Ketanserin
Counter-ions that a name gives are not always drawn.
Would you mind telling me the reported IC50 of each entry?
One number for each entry, in nM.

Here are 3 molecules together with their reported answers.
Cc1c(C(=O)NCCCN2CCN(c3ccc(Cl)cc3Cl)CC2)cc(-c2ccccc2)n1C [Example 154, hydrochloride] | 213
Cc1[nH]c(-c2ccccc2)cc1C(=O)NCCCN1CCN(c2cccc(Cl)c2Cl)CC1 | 300
CCCn1c(-c2ccccc2)cc(C(=O)N(C)CCCN2CCN(c3cccc(Cl)c3Cl)CC2)c1C [Example 31, hydrochloride] | 33.2

Which IC50 is listed for Cc1cccc(N2CCN(CCCNC(=O)c3cc(-c4ccccc4)n(C)c3C)CC2)c1C ?
57
